molecular target: Human Red Blood Cell AChE (Homo sapiens); construct: from tissue; host or cells: human red blood cells; experiment: Inhibition of human red blood cell acetylcholinesterase in vitro (radiometric assay of Johnson and Russell, modified); type: biochemical; conditions: Table II; human red blood cell AChE; read-out: IC50 Human AChE
pIC50: −log10 of the molar value.
MEASUREMENT LABEL: pIC50

>>> print(df.to_string())
                                   compound  measurement_label  readout_value
0           O=c1c2c(Cl)cc(Cl)cc2nc2n1CCCCC2              pIC50           4.20
1  Clc1ccc2c(c1)N=C1CC3CCC(C3)N1C2 (racemic)              pIC50           6.04
2  Clc1cc(Cl)c2c(c1)N=C1C3CC4CC(C3)CC(C4)N1C2              pIC50           7.22
3  CC1(C)CC2=Nc3cc(Cl)cc(Cl)c3CN2CC(C)(C)C1              pIC50           5.70
4             Clc1cc(Cl)c2c(c1)N=C1CCCCN1C2              pIC50           7.22
5  Clc1cc(Cl)c2c(c1)N=C1CCC(c3ccccc3)(c3ccccc3)CN1C2              pIC50           7.20
6  Clc1cc(Cl)c2c(c1)N=C1C3CCCC(C3)N1C2 (stereo not drawn)              pIC50           6.00
7              Clc1cc(Cl)c2c(c1)N=C1CCCN1C2              pIC50           6.70
8  Clc1cc(Cl)c2c(c1)N=C1C3CCC(C3)N1C2 (stereo not drawn)              pIC50           7.30

###

pIC50 values by entry
molecular target: Electric Eel AChE (Electrophorus electricus); assay: Inhibition of electric eel acetylcholinesterase in vitro; format: biochemical; settings: Table I; read-out: Inhibition of Acetylcholinesterase, Electric Eel AChE
pIC50: −log10 of the molar value.
MEASUREMENT LABEL: pIC50

>>> print(df.to_string())
                     record_smiles  readout_value
 0         Fc1cccc2c1N=C1CCCCCN1C2           5.82
 1     N#Cc1ccc2c(c1)CN1CCCCCC1=N2           5.82
 2  Clc1cc(Cl)c2c(c1)CN1CCCCCC1=N2           6.60
 3    Clc1ccc(Cl)c2c1CN1CCCCCC1=N2           7.00
 4    COc1cc2c(cc1OC)N=C1CCCCCN1C2           6.40
 5       Fc1ccc2c(c1)N=C1CCCCCN1C2           6.22
 6    Clc1ccc2c(c1Cl)N=C1CCCCCN1C2           6.40
 7      Clc1ccc2c(c1)N=C1CCCCCN1C2           6.70
 8        c1ccc2c(c1)CN1CCCCCC1=N2           6.21
 9  Clc1cc(Cl)c2c(c1)N=C1CCCCCN1C2           6.80
10        Clc1cccc2c1N=C1CCCCCN1C2           6.20
11     S=c1c2ccc(Cl)cc2nc2n1CCCCC2           4.80
12     O=c1c2ccc(Cl)cc2nc2n1CCCCC2           4.68
13     N=c1c2ccc(Cl)cc2nc2n1CCCCC2           6.30
14      CCc1ccc2c(c1)CN1CCCCCC1=N2           6.00
15    Clc1cc2c(cc1Cl)N=C1CCCCCN1C2           6.40

###

biological target: Electric Eel AChE (Electrophorus electricus, UniProt O42275); test: Inhibition of electric eel acetylcholinesterase in vitro; type: biochemical; settings: Table III; electric eel AChE; read-out: IC50 Eel AChE
Sequence (O42275 24-633): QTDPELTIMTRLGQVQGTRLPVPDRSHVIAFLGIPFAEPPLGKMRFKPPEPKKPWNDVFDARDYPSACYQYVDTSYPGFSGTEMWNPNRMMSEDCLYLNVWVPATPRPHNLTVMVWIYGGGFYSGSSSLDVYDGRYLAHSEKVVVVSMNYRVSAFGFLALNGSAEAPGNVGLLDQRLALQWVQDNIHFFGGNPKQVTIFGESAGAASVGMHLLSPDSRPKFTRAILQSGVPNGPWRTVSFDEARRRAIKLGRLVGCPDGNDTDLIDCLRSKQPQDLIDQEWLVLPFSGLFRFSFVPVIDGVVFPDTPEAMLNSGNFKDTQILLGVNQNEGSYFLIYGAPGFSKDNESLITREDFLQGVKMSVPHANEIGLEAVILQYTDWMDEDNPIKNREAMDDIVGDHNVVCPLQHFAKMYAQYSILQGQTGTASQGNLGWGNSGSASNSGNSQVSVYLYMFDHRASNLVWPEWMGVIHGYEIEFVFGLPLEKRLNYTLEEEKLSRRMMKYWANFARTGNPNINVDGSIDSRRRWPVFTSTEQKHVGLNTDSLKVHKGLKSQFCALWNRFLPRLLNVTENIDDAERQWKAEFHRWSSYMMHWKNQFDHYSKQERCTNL
Lab note: anything with IC50 below 2000 nM is marked condition met; values at 2000 nM or higher are marked condition not met.

                                   compound                       experimental_target  assigned_category
0  c1ccc(C2(c3ccccc3)CCC3=Nc4ccccc4CN3C2)cc1  Electric Eel AChE (Electrophorus electricus, UniProt O42275)      condition met
1                 c1ccc2c(c1)CN1CCCCCCC1=N2  Electric Eel AChE (Electrophorus electricus, UniProt O42275)  condition not met
2          FC(F)(F)c1ccc2c(c1)N=C1CCCCCN1C2  Electric Eel AChE (Electrophorus electricus, UniProt O42275)      condition met
3  c1ccc(C2CC3=Nc4ccccc4CN3C2)cc1 (stereo not drawn)  Electric Eel AChE (Electrophorus electricus, UniProt O42275)  condition not met
4                    c1ccc2c(c1)CN1CCCC1=N2  Electric Eel AChE (Electrophorus electricus, UniProt O42275)      condition met
5                    N=c1c2ccccc2nc2n1CCCC2  Electric Eel AChE (Electrophorus electricus, UniProt O42275)      condition met
6                   C1=CC2=Nc3ccccc3CN2C=C1  Electric Eel AChE (Electrophorus electricus, UniProt O42275)      condition met
7                c1ccc2c(c1)CN1CCCCCCCC1=N2  Electric Eel AChE (Electrophorus electricus, UniProt O42275)  condition not met

###

log10 IC50 values by entry
biological target: Human Red Blood Cell AChE (Homo sapiens, UniProt P22303); construct: from tissue; host or cells: human red blood cells; experiment: Inhibition of human red blood cell acetylcholinesterase in vitro (radiometric assay of Johnson and Russell, modified); type: biochemical; conditions: Table I; read-out: Inhibition of Acetylcholinesterase, Human Red Blood Cell AChE
Sequence (P22303 other isoform, or with tags, fused parts or gaps): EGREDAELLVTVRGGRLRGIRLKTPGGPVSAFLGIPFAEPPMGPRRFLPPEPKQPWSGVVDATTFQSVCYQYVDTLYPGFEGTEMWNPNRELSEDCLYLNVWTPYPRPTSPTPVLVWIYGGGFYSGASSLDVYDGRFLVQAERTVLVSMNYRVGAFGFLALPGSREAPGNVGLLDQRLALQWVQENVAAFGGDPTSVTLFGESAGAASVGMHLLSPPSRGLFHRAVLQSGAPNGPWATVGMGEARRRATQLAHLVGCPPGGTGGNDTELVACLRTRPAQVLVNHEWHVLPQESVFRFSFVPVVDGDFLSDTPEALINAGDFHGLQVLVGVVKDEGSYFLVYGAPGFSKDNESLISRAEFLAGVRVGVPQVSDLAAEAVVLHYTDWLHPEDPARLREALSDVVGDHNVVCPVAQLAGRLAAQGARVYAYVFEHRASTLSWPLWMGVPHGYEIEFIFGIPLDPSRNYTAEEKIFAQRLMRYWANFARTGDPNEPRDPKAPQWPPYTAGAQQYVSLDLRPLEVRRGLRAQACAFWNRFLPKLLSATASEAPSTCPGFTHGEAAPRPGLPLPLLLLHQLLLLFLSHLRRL
MEASUREMENT LABEL: log10 IC50 (log10 of the value in µM)

                                    molecule  measurement_label  readout_value
 0       Fc1ccc2c(c1)N=C1CCCCCN1C2 [3-F, H2]         log10 IC50           0.46
 1  Cc1c(Cl)cc2c(c1Cl)CN1CCCCCC1=N2 [1,3-DiCl, 2-Me, H2]         log10 IC50           0.00
 2       Clc1cccc2c1CN1CCCCCC1=N2 [1-Cl, H2]         log10 IC50           0.23
 3          c1ccc2c(c1)CN1CCCCCC1=N2 [H, H2]         log10 IC50           0.28
 4  Cc1c(Cl)ccc2c1CN1CCCCCC1=N2 [1-CH3,2-Cl, H2]         log10 IC50           0.60
 5  COc1cc2c(cc1OC)N=C1CCCCCN1C2 [2,3-DiOCH3, H2]         log10 IC50           0.95
 6     Cc1ccc2c(c1)N=C1CCCCCN1C2 [3-CH3, H2]         log10 IC50          -0.21
 7         Fc1cccc2c1CN1CCCCCC1=N2 [1-F, H2]         log10 IC50           0.28
 8         Fc1cccc2c1N=C1CCCCCN1C2 [4-F, H2]         log10 IC50           0.20
 9     Cc1ccc2c(c1)CN1CCCCCC1=N2 [2-CH3, H2]         log10 IC50           0.26
10  Clc1ccc(Cl)c2c1CN1CCCCCC1=N2 [1,4-DiCl, H2]         log10 IC50          -0.20
11  CCc1ccc2c(c1)CN1CCCCCC1=N2 [2-C2 H5, H2]         log10 IC50           0.40
12  Clc1cc(Cl)c2c(c1)CN1CCCCCC1=N2 [2,4-DiCl, H2]         log10 IC50          -1.20
13    N#Cc1ccc2c(c1)CN1CCCCCC1=N2 [2-CN, H2]         log10 IC50           0.83
14  Clc1ccc2c(c1Cl)CN1CCCCCC1=N2 [1,2-DiCl, H2]         log10 IC50           0.50
15   COc1ccc2c(c1)N=C1CCCCCN1C2 [3-OCH3, H2]         log10 IC50           0.45
16       Fc1ccc2c(c1)CN1CCCCCC1=N2 [2-F, H2]         log10 IC50           0.30
17  Cc1cc(Cl)c2c(c1)CN1CCCCCC1=N2 [2-CH3,4-Cl, H2]         log10 IC50          -0.20
18  Clc1ccc2c(c1Cl)N=C1CCCCCN1C2 [3,4-DiCl, H2]         log10 IC50           0.18
19  Clc1cc2c(cc1Cl)N=C1CCCCCN1C2 [2,3-DiCl, H2]         log10 IC50           0.40
20       Clc1cccc2c1N=C1CCCCCN1C2 [4-Cl, H2]         log10 IC50           0.18
21     Clc1ccc2c(c1)CN1CCCCCC1=N2 [2-Cl, H2]         log10 IC50          -0.30
22       Cc1cccc2c1N=C1CCCCCN1C2 [4-CH3, H2]         log10 IC50           0.78
23  Cc1cc(C)c2c(c1)CN1CCCCCC1=N2 [2,4-DiCH3, H2]         log10 IC50          -0.05
24  Clc1cc(Cl)c2c(c1)N=C1CCCCCN1C2 [1,3-DiCl, H2]         log10 IC50          -1.40
